# TEST SYSTEM: T1, 6His-AviTag-linked cynomolgus monkey IL-33 (residues 112 to 269) (cynomolgus monkey, UniProt O95760 112-269 (human entry), biotin on the AviTag portion (BirA) in the SPR of Example 7; used without biotinylation in Example 10)
# T1 construct: GenBank EHH57404 printed; also called cynomolgus monkey IL-33 protein; mature cynomolgus monkey IL-33
# T1 chain: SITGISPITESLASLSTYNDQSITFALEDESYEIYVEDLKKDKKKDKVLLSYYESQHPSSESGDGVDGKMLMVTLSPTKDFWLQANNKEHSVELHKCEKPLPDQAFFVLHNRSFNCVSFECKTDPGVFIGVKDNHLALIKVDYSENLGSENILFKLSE
# PROCEDURE DETAILS: SPR, IL-33 on chip, Fab supernatant as analyte
This section presents binders with their documented koff values.
Output spec: scalar in s⁻¹, unitless text.

For orientation, consider the following solved cases.
BINDER | READING UNIT | koff
A28-2F01 (Fab) (Fab, V domains shown, Fab secreted by E. coli, tested as culture supernatant; also called V26) VH: EVQLLESGGGLVQPGGSLRLSCAASGFTFSNYYMHWVRQAPGKGLEWVSSISSRSSHQYYAGSVKGRFTISRDNSKNTLYLQMNSLRAEDTAVYYCARLGLRHDAFDIWGQGTLVTVSS VL: QSVLTQPPSASGTPGQRVTISCSGSSSNIGHNAVWWYQQLPGTAPKLLIYASNMRRMGVPDRFSGSKSGTSASLAISGLRSEDEADYYCAAWDDSQKAVVFGGGTKLTVL | s⁻¹ | 1e-05
A00-0036 (Fab) (Fab, V domains shown, parental clone as Fab; also called V30; parental clone (Fab)) VH: EVQLLESGGGLVQPGGSLRLSCAASGFTFSNYYMHWVRQAPGKGLEWVSSISSSSSYIYYADSVKGRFTISRDNSKNTLYLQMNSLRAEDTAVYYCARLGTRHDAFDIWGQGTLVTVSS VL: QSVLTQPPSASGTPGQRVTISCSGSSSNIGNNAVNWYQQLPGTAPKLLIYASNMRRLGVPDRFSGSKSGTSASLAISGLRSEDEADYYCAAWDDSQKAVVFGGGTKLTVL | s⁻¹ | 0.0347

Moving on to another binder below.
Ask | Given A25-2D01 (Fab) (Fab, V domains shown, Fab secreted by E. coli, tested as culture supernatant; also called V9) VH: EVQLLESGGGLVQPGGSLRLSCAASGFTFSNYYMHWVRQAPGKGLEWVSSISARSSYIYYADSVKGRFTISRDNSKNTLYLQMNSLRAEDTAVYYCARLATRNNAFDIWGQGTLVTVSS VL: QSVLTQPPSASGTPGQRVTISCSGSSSNIGRNAVNWYQQLPGTAPKLLIYASNMRVIGVPDRFSGSKSGTSASLAISGLRSEDEADYYCAAWDDSQKAWVFGGGTKLTVL , state its recorded koff.
Reply | 1e-05
